- Tested on: P388 leukemia ip, CD2F1 mice, survival T/C
- EXPERIMENT: NCI In Vivo Anticancer Drug Screen. Data for tumor model P388 Leukemia (intraperitoneal) in CD2F1 (CDF1) mice
- CONDITIONS: endpoint: median survival time; dose: 50.0 mg/kg/injection; schedule: Q01DX005 (ip); vehicle: saline with Tween-80; higher = longer survival
Toxic doses and inconclusive results are not listed.
ASSAY_METRIC: T/C

Reference set (5 entries):
>  <MOLECULE>
O=C(Nc1ccccc1)N1c2ccccc2SC1c1ccco1 (stereo not given)

>  <T/C>
101 % of control

$$$$
>  <MOLECULE>
OCC(O)C(O)CO (stereo not given)

>  <T/C>
98 % of control

$$$$
>  <MOLECULE>
CC(C)(C)NC(=S)N/N=C/c1ccccc1O

>  <T/C>
108 % of control

$$$$
>  <MOLECULE>
CC1=CNC(=O)CC(C)(C)C1

>  <T/C>
105 % of control

$$$$
>  <MOLECULE>
Cc1cc(=O)oc2cc(NC(=O)C(CCCN=C(N)N)NC(=O)OCc3ccccc3)ccc12 (stereo not given)

>  <T/C>
97 % of control

$$$$

We now examine a further molecule.
Which T/C value belongs to O=c1c2ccccc2oc2nc3cc(Cl)ccc3n12 ?
104 % of control

---

Overview of reported T/C across a group of molecules:
- Test system: P388 leukemia ip, CD2F1 mice, survival T/C
- EXPERIMENT: NCI In Vivo Anticancer Drug Screen. Data for tumor model P388 Leukemia (intraperitoneal) in CD2F1 (CDF1) mice
- CONDITIONS: endpoint: median survival time; dose: 200.0 mg/kg/injection; schedule: Q01DX005 (ip); vehicle: saline with Tween-80; higher = longer survival
Toxic doses and inconclusive results are not listed.

Here's what some known entries look like.
>  <MOLECULE>
O=C1NC(=O)C2(Cc3cccc4cccc2c34)N1 (stereo unspecified)

>  <TARGET_OF_ASSAY>
P388 leukemia ip, CD2F1 mice, survival T/C

>  <T/C>
99 % of control

$$$$
>  <MOLECULE>
COc1cc2c(cc1OC)NCC1COc3c(ccc(OC)c3OC)C1=N2 (stereo unspecified)

>  <TARGET_OF_ASSAY>
P388 leukemia ip, CD2F1 mice, survival T/C

>  <T/C>
92 % of control

$$$$
>  <MOLECULE>
CCCCCCN(CCCCCC)CC(O)c1cc(-c2ccccc2)nc2cc(Cl)ccc12 (stereo unspecified)

>  <TARGET_OF_ASSAY>
P388 leukemia ip, CD2F1 mice, survival T/C

>  <T/C>
113 % of control

$$$$
>  <MOLECULE>
O=c1c2ccccc2[nH]c2cc([N+](=O)[O-])cc([N+](=O)[O-])c12

>  <TARGET_OF_ASSAY>
P388 leukemia ip, CD2F1 mice, survival T/C

>  <T/C>
98 % of control

$$$$

Given the entry O=C1Nc2ccccc2C12Nc1ccccc1S2 (stereo unspecified) , report its measured T/C.
110 % of control

# query: T/C of entry O=C(CN1C(=O)c2ccccc2C1=O)C(O)CN1C(=O)c2ccccc2C1=O (stereo unspecified)
100 % of control

---

Some compounds, each annotated with its measured T/C.
- System: P388 leukemia ip, CD2F1 mice, survival T/C
- EXPERIMENT: NCI In Vivo Anticancer Drug Screen. Data for tumor model P388 Leukemia (intraperitoneal) in CD2F1 (CDF1) mice
- CONDITIONS: endpoint: median survival time; dose: 50.0 mg/kg/injection; schedule: Q01DX009 (ip); vehicle: saline; higher = longer survival
Inconclusive results and toxic doses are left out.

Below, each entry is followed by its recorded T/C result.
>  <COMPOUND>
O=C(CCl)NC(Cc1ccsc1)C(=O)O (stereo unspecified)

>  <RESULT>
93 % of control

$$$$
>  <COMPOUND>
N#CC1=C(C#N)CC(c2ccccc2)CC1 (stereo unspecified)

>  <RESULT>
104 % of control

$$$$
>  <COMPOUND>
CN1CCN(c2ccncc2S(=O)(=O)N2CCOCC2)CC1

>  <RESULT>
97 % of control

$$$$
>  <COMPOUND>
COc1ccc(/C(C)=N/OC(=O)c2c(-c3ccccc3Cl)noc2C)cc1CN1CCOCC1

>  <RESULT>
94 % of control

$$$$
>  <COMPOUND>
Nc1nc([Se])c2ncn(C3OC(CO)C(O)C3O)c2n1 (stereo unspecified)

>  <RESULT>
96 % of control

$$$$

Consider now this further compound.
Value lookup for T/C; key = c1ccc2c(C3CO3)c3ccccc3c(C3CO3)c2c1 (stereo unspecified)
99 % of control

---

- Tested on: P388 leukemia ip, CD2F1 mice, survival T/C
- EXPERIMENT: NCI In Vivo Anticancer Drug Screen. Data for tumor model P388 Leukemia (intraperitoneal) in CD2F1 (CDF1) mice
- CONDITIONS: endpoint: median survival time; dose: 50.0 mg/kg/injection; schedule: Q04DX002 (ip); vehicle: saline with Tween-80; higher = longer survival
- Experimental: The antitumor activity of compounds was measured in mice bearing transplantable tumors. Survival or tumor size were measured and the results are expressed as the measurement made in the treated group (T) divided by the measurement made in the vehicle treated control group (C). The tumor model used in this assay is P388 Leukemia (intraperitoneal) in CD2F1 (CDF1) mice
Inconclusive results and toxic doses are left out.
ASSAY_METRIC: T/C

# example entries with known answers
>  <COMPOUND>
CCCCN=C(N)NN=C(c1ccc(C)cc1)c1ccc(C)cc1

>  <TARGET_OF_ASSAY>
P388 leukemia ip, CD2F1 mice, survival T/C

>  <RESULT>
99 % of control

$$$$
>  <COMPOUND>
N#Cc1c(NCc2ccccc2)nc2c3ccccc3ccn2c1=O

>  <TARGET_OF_ASSAY>
P388 leukemia ip, CD2F1 mice, survival T/C

>  <RESULT>
97 % of control

$$$$
>  <COMPOUND>
CN(C)/C=C/C=C1\CCCC1=O

>  <TARGET_OF_ASSAY>
P388 leukemia ip, CD2F1 mice, survival T/C

>  <RESULT>
103 % of control

$$$$
>  <COMPOUND>
Brc1cccc(C(Nc2nncs2)Nc2nncs2)c1

>  <TARGET_OF_ASSAY>
P388 leukemia ip, CD2F1 mice, survival T/C

>  <RESULT>
91 % of control

$$$$
>  <COMPOUND>
CC1C(=O)C23CC1CCC2C12COC(=O)C1C(C)(C)C(=O)CC2OC3=O (stereo not drawn)

>  <TARGET_OF_ASSAY>
P388 leukemia ip, CD2F1 mice, survival T/C

>  <RESULT>
105 % of control

$$$$

Tell me reported T/C for COc1c2occc2c(NC(=O)CI)c2ccc(=O)oc12 , tested with P388 leukemia ip, CD2F1 mice, survival T/C.
101 % of control

Checklist item: T/C tested on P388 leukemia ip, CD2F1 mice, survival T/C, entry CSCc1cc(C)ccc1NC(C)=O , value?
98 % of control

Report T/C for COc1ccc(NC(SC)=C(C#N)C#N)cc1 tested on P388 leukemia ip, CD2F1 mice, survival T/C.
100 % of control

Test system P388 leukemia ip, CD2F1 mice, survival T/C; read-out T/C; what value for [Ni+2].[O-]c1ccccc1C=NCCCCCCN=Cc1ccccc1[O-] ?
94 % of control

Give T/C (P388 leukemia ip, CD2F1 mice, survival T/C) of the following compound: Clc1ccc2c(ccc3ccc(Cl)nc32)n1
98 % of control

---

- Tested on: P388 leukemia ip, CD2F1 mice, survival T/C
- EXPERIMENT: NCI In Vivo Anticancer Drug Screen. Data for tumor model P388 Leukemia (intraperitoneal) in CD2F1 (CDF1) mice
- CONDITIONS: endpoint: median survival time; dose: 12.5 mg/kg/injection; schedule: Q01DX009 (ip); vehicle: Klucel (hydroxypropylcellulose) (HPC)
Toxic doses and inconclusive results are not listed. Rule for the calls: active = survival T/C of 150% or more; inactive = T/C below 125% in these data.
Choose one outcome from this list and give only that: active, inactive

>  <MOLECULE>
CC(=O)[O][Pb]([O]C(C)=O)([c]1ccccc1)[c]1ccccc1

>  <ASSIGNED_CATEGORY>
inactive

$$$$
>  <MOLECULE>
CCN(CC)Cc1c(O)c(N=Nc2cccc3ccccc23)cc2ccccc12

>  <ASSIGNED_CATEGORY>
inactive

$$$$
>  <MOLECULE>
C=C1C(=O)O[C@@H]2[C@H]1CC[C@H](C)[C@]1(O)CCC(=O)[C@@]21C

>  <ASSIGNED_CATEGORY>
inactive

$$$$
>  <MOLECULE>
COc1c(I)c2c(c(OC)c1OC)-c1ccc(OC)c(=O)cc1C(NC(C)=O)CC2 (stereo unspecified)

>  <ASSIGNED_CATEGORY>
active

$$$$
>  <MOLECULE>
C[N+]1(C)CCC(OC(=O)C(O)(c2ccccc2)C2CCCC2)C1 (stereo unspecified)

>  <ASSIGNED_CATEGORY>
inactive

$$$$

Okay, next one:
So what was the verdict on C/C(N)=C\C(=S)Nc1ccccc1 in this test?
inactive
